Quick reference for Reduction [%] among some compounds
# Test system: ZEAMA Sileno
# PROTOCOL_SUMMARY: Seed treatment with safener; post-emergence herbicide application
# Format: in vivo, maize
# SETUP_CONDITIONS: HER dose 8 g a.i./ha, Cyprosulfamide 0.5 g a.i./kg seed, Final assessment
Write it as a number; the unit % goes unstated.

Illustrative cases are given below, each with its answer.
1. C=CCOC(=O)C1CC(NC(=O)C2(C)CC(c3cc(F)cc(F)c3)=NO2)CO1 (mixture of isomers); 100
2. C=CC1(C(=O)NC2COC(C(=O)OC)C2)CC(c2cc(F)cc(F)c2)=NO1 (mixture of isomers) [Example 1.68]; 74
3. COC(=O)C1C=CC(NC(=O)C2(C(F)(F)F)CC(c3cccc(F)c3)=NO2)C1 (stereo not shown); 89
4. CCCSCCOC(=O)C1C=CC(NC(=O)C2(C)CC(c3cc(F)cc(F)c3)=NO2)C1 (stereo not shown); 80
5. C=CC1(C(=O)NC2CC=C(C(=O)OC)C2)CC(c2cc(F)cc(F)c2)=NO1 (mixture of isomers); 94

stdin: Entry CC1(C(=O)NC2COC(C(=O)OCc3cccc(F)c3)C2)CC(c2cc(F)cc(F)c2)=NO1 (mixture of isomers) needs its Reduction [%] filled in; supply it.
stdout: 100

stdin: Give me measured Reduction [%], please, for this compound: COCCOC(=O)C1C=CC(NC(=O)C2(CCl)CC(c3cc(F)cc(F)c3)=NO2)C1 (stereo not shown)
stdout: 100

---

# Test system: ZEAMA Sileno
# PROTOCOL_SUMMARY: Seed treatment with safener; post-emergence herbicide application
# Type: in vivo, maize
# Parameters: scale not given here
# SETUP_CONDITIONS: HER dose 32 g a.i./ha, Cyprosulfamide 0.5 g a.i./kg seed, Final assessment, damage without safener - damage with safener
VALUE_KIND: Reduction [Difference]
Give only the figure.

Examples with their reported Reduction [Difference] follow.
1) C=CC1(C(=O)NC2C=CC(C(=O)OC)C2)CC(c2cc(F)cc(F)c2)=NO1 (centres unmarked); 67
2) C=CC1(C(=O)NC2CC=C(C(=O)OC)C2)CC(c2cc(F)cc(F)c2)=NO1 (mixture of isomers); 57
3) COCCOC(=O)C1C=CC(NC(=O)C2(CCl)CC(c3cc(F)cc(F)c3)=NO2)C1 (centres unmarked); 70
4) COC(=O)C1C=CC(NC(=O)C2(C)CC(c3cc(F)cc(Cl)c3)=NO2)C1 (centres unmarked); 25
5) CCOC(=O)C1=CCC(NC(=O)C2(C)CC(c3cccc(F)c3)=NO2)C1 (mixture of isomers); 57

stdin: Give a short answer stating reported Reduction [Difference] for C=CC1(C(=O)NC2C=C(C(=O)OC)OC2)CC(c2cc(C)cc(C)c2)=NO1 (centres unmarked) .
stdout: 64

stdin: Please report Reduction [Difference] for the following compound: CN(C)C(=O)SCCOC(=O)C1C=CC(NC(=O)C2(C)CC(c3cc(F)cc(F)c3)=NO2)C1 (centres unmarked)
stdout: 70

stdin: Indicate its recorded Reduction [Difference]; the compound in question is COCCOC(=O)C1C=CC(NC(=O)C2(C)CC(c3cc(Cl)cc(C#N)c3)=NO2)C1 (centres unmarked)
stdout: 76

---

# System: ZEAMA Sileno
# PROTOCOL_SUMMARY: Tank-mix; post-emergence, crop damage with and without safener
# Type: in vivo, maize
# SETUP_CONDITIONS: HER 8 g a.i./ha, cyprosulfamide 50 g a.i./ha
Decide using Reduction [Difference]: a value greater than or equal to 50 is true, a smaller one is false.

Answered cases to consult:
1. C=CC1(C(=O)NC2COC(C(=O)OCCOC)C2)CC(c2cc(F)cc(F)c2)=NO1 (mixture of isomers); true
2. C=CC1(C(=O)NC2COC(C(=O)OC)C2)CC(c2cc(F)cc(F)c2)=NO1 (centres unmarked) [Example 1.70]; false
3. C=CCOC(=O)C1CC(NC(=O)C2(C=C)CC(c3cc(F)cc(F)c3)=NO2)CO1 (mixture of isomers); false
4. CN(C)C(=O)SCCOC(=O)C1C=CC(NC(=O)C2(C)CC(c3cc(F)cc(F)c3)=NO2)C1 (centres unmarked); false
5. C=CCOC(=O)C1CC(NC(=O)C2(C)CC(c3cc(F)cc(F)c3)=NO2)CO1 (mixture of isomers); false
6. C=CC1(C(=O)NC2C=CC(C(=O)OC)C2)CC(c2cc(F)cc(F)c2)=NO1 (centres unmarked); false

stdin: API: above_or_equal(metric=Reduction [Difference], cutoff=50) for item CCOC(=O)C1C=CC(NC(=O)C2(C(F)(F)F)CC(c3ccccc3)=NO2)C1 (centres unmarked)
stdout: true

stdin: # check: Reduction [Difference] of COCCOC(=O)C1C=CC(NC(=O)C2(C(F)(F)F)CC(c3cc(F)cc(C#N)c3)=NO2)C1 (centres unmarked) is greater than or equal to 50
stdout: false

stdin: // inclusive: Reduction [Difference] at least 50? input: C=CC1(C(=O)NC2COC(C(=O)OC)C2)CC(c2cc(F)cc(F)c2)=NO1 (centres unmarked) [Example 1.69]
stdout: true

stdin: Would you say CCOC(=O)C1=CCC(NC(=O)C2(C)CC(c3cccc(F)c3)=NO2)C1 (mixture of isomers) shows Reduction [Difference] at minimum 50?
stdout: false
